The origin of these recorded values is PubChem BioAssay.

- Target System: Neurogenic locus notch homolog protein 2 (Homo sapiens) (UniProt Q04721)
- Sequence (Q04721 whole entry, looked up): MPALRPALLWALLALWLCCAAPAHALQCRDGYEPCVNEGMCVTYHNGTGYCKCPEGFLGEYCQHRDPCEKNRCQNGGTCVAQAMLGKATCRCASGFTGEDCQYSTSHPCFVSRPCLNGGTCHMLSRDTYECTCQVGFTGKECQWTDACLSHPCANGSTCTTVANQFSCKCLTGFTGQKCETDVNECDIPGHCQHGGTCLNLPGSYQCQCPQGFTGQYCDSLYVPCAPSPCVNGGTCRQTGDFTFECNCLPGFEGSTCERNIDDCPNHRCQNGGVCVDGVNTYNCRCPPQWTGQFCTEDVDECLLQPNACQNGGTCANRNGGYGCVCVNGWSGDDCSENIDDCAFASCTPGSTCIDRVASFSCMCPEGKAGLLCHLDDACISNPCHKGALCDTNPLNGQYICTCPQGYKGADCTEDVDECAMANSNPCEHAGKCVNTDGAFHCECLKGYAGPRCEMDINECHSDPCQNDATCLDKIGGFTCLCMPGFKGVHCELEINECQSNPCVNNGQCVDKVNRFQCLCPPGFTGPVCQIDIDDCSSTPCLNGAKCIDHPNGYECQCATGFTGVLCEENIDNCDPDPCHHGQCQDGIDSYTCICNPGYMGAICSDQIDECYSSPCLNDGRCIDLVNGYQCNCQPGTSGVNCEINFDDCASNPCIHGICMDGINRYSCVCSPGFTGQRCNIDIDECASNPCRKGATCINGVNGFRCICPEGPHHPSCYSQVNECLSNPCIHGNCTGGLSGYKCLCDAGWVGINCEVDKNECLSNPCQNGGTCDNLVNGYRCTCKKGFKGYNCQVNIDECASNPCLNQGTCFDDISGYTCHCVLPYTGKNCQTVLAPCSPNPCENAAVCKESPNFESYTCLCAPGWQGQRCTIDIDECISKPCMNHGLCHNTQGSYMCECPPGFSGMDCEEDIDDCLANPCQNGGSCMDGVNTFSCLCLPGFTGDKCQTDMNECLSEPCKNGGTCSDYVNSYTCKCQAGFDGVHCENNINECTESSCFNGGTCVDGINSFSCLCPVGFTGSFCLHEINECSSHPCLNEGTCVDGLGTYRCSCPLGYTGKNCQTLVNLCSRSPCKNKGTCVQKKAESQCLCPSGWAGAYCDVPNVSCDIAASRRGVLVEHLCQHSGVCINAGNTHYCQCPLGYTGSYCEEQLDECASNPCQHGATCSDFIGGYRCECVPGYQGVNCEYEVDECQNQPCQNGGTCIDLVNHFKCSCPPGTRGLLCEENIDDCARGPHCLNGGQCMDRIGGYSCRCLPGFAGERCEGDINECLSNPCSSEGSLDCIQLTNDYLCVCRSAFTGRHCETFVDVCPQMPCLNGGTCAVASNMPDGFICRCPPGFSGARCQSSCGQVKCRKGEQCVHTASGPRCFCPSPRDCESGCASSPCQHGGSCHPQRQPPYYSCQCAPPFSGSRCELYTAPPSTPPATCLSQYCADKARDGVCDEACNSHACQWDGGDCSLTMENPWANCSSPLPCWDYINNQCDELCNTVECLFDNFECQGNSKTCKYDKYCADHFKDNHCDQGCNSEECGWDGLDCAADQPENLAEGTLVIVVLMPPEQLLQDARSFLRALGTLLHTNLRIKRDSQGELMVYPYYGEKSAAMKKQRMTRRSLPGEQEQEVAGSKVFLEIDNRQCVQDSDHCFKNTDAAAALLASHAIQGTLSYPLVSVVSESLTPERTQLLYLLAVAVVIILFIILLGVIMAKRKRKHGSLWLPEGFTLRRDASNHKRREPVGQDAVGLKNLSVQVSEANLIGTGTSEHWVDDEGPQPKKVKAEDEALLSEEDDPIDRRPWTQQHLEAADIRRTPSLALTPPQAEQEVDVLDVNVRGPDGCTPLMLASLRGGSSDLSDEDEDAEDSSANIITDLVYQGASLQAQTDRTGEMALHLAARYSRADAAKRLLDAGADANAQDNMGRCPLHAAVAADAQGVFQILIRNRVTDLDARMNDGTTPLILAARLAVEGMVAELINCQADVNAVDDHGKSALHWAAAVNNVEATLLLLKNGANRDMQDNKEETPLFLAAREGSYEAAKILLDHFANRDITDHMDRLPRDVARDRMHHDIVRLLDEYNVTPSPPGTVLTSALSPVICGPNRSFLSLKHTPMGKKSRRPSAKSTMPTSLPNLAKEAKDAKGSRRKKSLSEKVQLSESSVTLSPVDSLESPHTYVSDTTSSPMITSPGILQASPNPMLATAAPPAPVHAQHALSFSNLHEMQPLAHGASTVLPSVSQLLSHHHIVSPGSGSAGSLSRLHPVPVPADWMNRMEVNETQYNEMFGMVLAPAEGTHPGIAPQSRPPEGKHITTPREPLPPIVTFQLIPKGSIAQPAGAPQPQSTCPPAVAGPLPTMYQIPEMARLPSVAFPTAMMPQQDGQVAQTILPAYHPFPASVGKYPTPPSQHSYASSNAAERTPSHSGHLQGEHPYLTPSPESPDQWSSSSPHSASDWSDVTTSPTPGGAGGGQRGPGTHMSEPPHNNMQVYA
- Experiment Description: Notch2 binders on small-molecule microarrays, primary screen, biochemical, small-molecule microarray, 635 nm fluorescence, stem cell growth factors (AID 1073)
- Condition Details: Notch2 binding, higher = more signal
Readout Label: composite z-score
Give bare numbers.

Please review the following examples before continuing.
{"columns": ["Molecule", "composite z-score"],
 "data": [
  ["O=C1C[C@@H](O)[C@@H](O)[C@@H]2[C@@H]3C(=O)N(c4cccc(Oc5ccccc5)c4)C(=O)[C@@H]3CC[C@@H]12", 1.26],
  ["CCOC(=O)C1=CCC(c2cc3ccccc3[nH]2)NC1 (configuration not stated)", 0.476],
  ["CCOC(=O)[C@H](CC(C)C)NC(=O)CCC1CC(OC(=O)NCCc2ccc(F)cc2)CC2(CCCC(COC(=O)NCc3ccccc3)O2)O1 (some centres not stated)", 0.769]
]}

Please go through the list and note composite z-score for each molecule.
1. COc1ccc(COC(=O)NN=C2C[C@@H](O)[C@@H](O)[C@@H]3[C@@H]4C(=O)N(Cc5ccc6c(c5)OCO6)C(=O)[C@@H]4CC[C@@H]23)cc1
2. C[C@@H]1CC[C@H]2C(=O)O[C@H](COc3ccc(C(C)(C)C)cc3)CN2[C@H]1c1ccc(Br)cc1
3. CC(C)[C@H](NC(=O)OC(C)(C)C)[C@@H](O)CC(=O)OC(C)(C)C
4. CCCCCCc1nc(CCCc2cc3c(c(CCCCCC)n2)[Si](C(C)C)(C(C)C)O[C@H]3c2ccccc2)cc2c1[Si](C(C)C)(C(C)C)O[C@H]2c1ccccc1

## Output
1. -0.732
2. 0.111
3. -0.756
4. -0.253

---

I'd appreciate it if you could supply composite z-score values for the items below.
- Target System: Streptavidin (Streptomyces avidinii)
- Experiment Description: streptavidin binders on small-molecule microarray, primary screen, artefact control for SMM compound annotation, biophysical, 635/667 nm fluorescence (AID 1147);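 also: signal reflects streptavidin binding to arrayed compounds as a control protein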
- Condition Details: streptavidin binding, higher = more signal
Answers are plain numbers.

Example cases with answers are listed next.
{"columns": ["Structure Notation", "composite z-score"],
 "data": [
  ["COCCOC(=O)N1C(=O)[C@@]2(c3cc(C#CC4(O)CCCCCC4)ccc31)[C@H](c1ccc(OCCO)cc1)N1[C@H](c3ccccc3)[C@H](c3ccccc3)OC(=O)[C@H]1[C@@H]2C(=O)NC[C@H](O)c1ccccc1", 0.246],
  ["CCc1cc2c(nc1CC)CCN(CCC(C)=NO[C@@H](C)c1cc(-c3c(C)cc(C)cc3C)no1)C2", 1.67],
  ["CC(CCN1CCc2nc(-c3ccccc3)c(-c3ccccc3)cc2C1)=NOC[C@@H](C)[C@H](OCc1ccccc1)C(C)C", -0.717]
]}

Okay, now this molecule:
## Input Given the entry COC(=O)[C@H](C)NC(=O)[C@@H](C)CO , report its measured composite z-score.
## Output 0.733

---

- Target System: Left-right determination factor 2 (Homo sapiens)
- Experiment Description: LEFTY2 binders on small-molecule microarrays, primary screen, biochemical, small-molecule microarray, 635 nm fluorescence scan (AID 1110)
- Condition Details: LEFTY2 binding, higher = more signal
Readout Label: composite z-score
Numbers only.

Please review the following examples before continuing.
{"columns": ["Molecule", "Readout Label", "Observed Result"],
 "data": [
  ["COc1ccccc1CN1C(=O)c2ccccc2[C@@H](C(=O)NCC(F)(F)F)[C@@H]1c1ccc(CO)cc1", "composite z-score", -0.155],
  ["CCN1C(=O)[C@H]2[C@H]3[C@H](O)[C@H](O)CC(=NOCc4ccccc4)[C@@H]3CC[C@H]2C1=O", "composite z-score", 0.609]
]}

# batch size: 5; output composite z-score per entry
1. CC(C)C[C@@H]1NC(=O)[C@H]2C[C@@H](C(=O)NCCCCCCN(C)C)[C@@H](c3cccc(OCCO)c3)N2C1=O
2. CC(=O)OC[C@H]1O[C@H](CCON=C[C@@H](C)[C@H](OCc2ccccc2)C(C)C)C=C[C@@H]1OC(C)=O
3. O=C1[C@H]2[C@H]3[C@H](O)[C@H](O)CC(=NO[C@@H]4O[C@H](CO)[C@@H](O)[C@H](O)[C@H]4O)[C@H]3CC[C@H]2C(=O)N1C1CCCCC1
4. C#CCCCON=C1C[C@@H](O)[C@@H](O)[C@@H]2[C@@H]3C(=O)N(CCC(=O)OCC)C(=O)[C@@H]3CC[C@@H]12
5. CC(=O)O[C@H]1C2=C(C(=O)[C@@H]3O[C@@H]31)[C@H]1C(C)O[C@@H]2[C@@]23C(=O)[C@@H]4O[C@@H]4[C@@H](O)C2=CO[C@H](C)[C@@H]13 (some centres not stated)

## Output
1: 1.38; 2: 0.646; 3: 0.271; 4: -0.174; 5: 0.552

Hi! Can you tell me composite z-score for each of these molecules?
1. C=CCC(OC(C)=O)[C@@H]1[C@@H](N(Cc2cc3ccccc3o2)C(=O)Cc2ccc(F)cc2)c2cc(OCCCO)ccc2N1C(=O)Cc1ccc(OC)cc1 (some centres not stated)
2. CC(C)C[C@@H]1NC(=O)[C@H]2C[C@@H](C(=O)O)[C@@H](c3ccc(O)cc3)N2C1=O
3. CC(=O)OC[C@H]1O[C@H](CC=NOC[C@@H](C)[C@H](OCc2ccccc2)C(C)C)C=C[C@@H]1OC(C)=O
4. CN1C(=O)C2C(C1=O)C1C=C(CCCO)C2C(c2ccc(CN3CCCC3)cc2)N1C (configuration not stated)
5. COc1cccc([C@H]2Oc3ccc(OC)cc3C(=NO[C@H](C)c3cn([C@@H]4COC[C@H]4O)nn3)[C@@H]2O)c1
6. CC[C@@H](c1ccccc1)n1c(=O)n2n(c1=O)[C@H]1[C@H](O)[C@@H]3O[C@@H]3C(=NOCC(C)C)[C@H]1CC2

## Output
1: -0.0691; 2: 0.0945; 3: 0.455; 4: 0.175; 5: -0.647; 6: 0.143

Quick request: composite z-score for each listed item, please.
1. COCC(=C=CC[C@@H](O)c1ccccc1OCCO)CCO
2. CCCC[C@@H](O)C1=C(C)C[C@H]2C(=O)N(Cc3ccccc3)C(=O)[C@H]2[C@H]1CO

## Output
-0.0632
0.521

---

- Target System: NADPH oxidase 4 (Homo sapiens)
- Experiment Description: NOX4-dependent H2O2 signal modulators, primary screen, NOX inhibitor project, cell-based, HEK293-NOX4, tetracycline-induced, Amplex Red fluorescence (AID 1160)
- Condition Details: 45 min, higher = more signal, called active from +8 up or from −8 down
Outcome: YES for z-score of at least 0.3; NO for anything lower.

{"columns": ["Compound", "Answer Label"],
 "data": [
  ["O=C1C[C@@H](O)[C@@H](O)[C@@H]2[C@@H]3C(=O)N(c4ccc(F)cc4F)C(=O)[C@@H]3CC[C@@H]12", "YES"]
]}

## Input Confirm if z-score reported for the compound CCOC(=O)NN=C1C[C@@H](O)[C@@H](O)[C@@H]2[C@@H]3C(=O)N(C4CCCCC4)C(=O)[C@@H]3CC[C@@H]12 is 0.3 or above.
## Output YES

## Input // inclusive: z-score at least 0.3? input: COc1ccccc1CN1C(=O)c2ccccc2[C@@H](C(=O)NCC(F)(F)F)[C@@H]1c1ccc(CO)cc1
## Output YES

## Input Is reported z-score greater than or equal to 0.3 here: CC(C)(C)N1CC=CC23O[C@@H]4C=CCCOC(=O)C4[C@H]2C(=O)N(CCCCCO)[C@@H]3C1=O (some centres not stated)
## Output YES

## Input Hi team, for O=C1C[C@@H](O)[C@@H](O)[C@@H]2[C@@H]3C(=O)N(Cc4ccc5c(c4)OCO5)C(=O)[C@@H]3CC[C@@H]12 , is the recorded z-score at or above 0.3?
## Output NO

## Input Item O=C1O[C@@H](c2ccccc2)[C@@H](c2ccccc2)N2[C@@H](c3ccc(O)cc3)[C@]3(C(=O)Nc4ccccc43)[C@@H](C(=O)O)[C@H]12 with z-score of 0.3 or above?
## Output NO

---

- Experiment Description: fission yeast growth modulation, primary screen, strain 972, OD600, 24 h, no modulator (AID 1090);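 also: basal condition with compound alone and no growth modifier present; test concentration not given here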
- Condition Details: S. pombe 972 growth, higher = more signal, called active from +8 up or from −8 down
Readout Label: z-score
One number for each entry.

Example compounds with recorded z-score:
{"columns": ["Compound", "z-score"],
 "data": [
  ["COCCCNC(=O)[C@@]1(Sc2ccc(C)cc2)CC(=O)N(Cc2ccccc2)[C@@H]1c1ccc(CO)cc1I", -2.82],
  ["CO[C@H]1COC(=O)[C@@H]2CCCN2C(=O)[C@@H](C)COC(=O)CC=C[C@@H]1C", 0.0569],
  ["COc1ccc(COC(=O)NN=C2C[C@@H](O)[C@@H](O)[C@@H]3[C@@H]4C(=O)N(Cc5ccc6c(c5)OCO6)C(=O)[C@@H]4CC[C@@H]23)cc1", -0.654],
  ["[N-]=[N+]=Nc1ccccc1C[C@@]1(C(N)=O)N=C(c2ccc(OCCCO)cc2)O[C@@H]1c1ccccc1", -0.371]
]}

Report z-score for every entry below.
1. CO[C@H]1COC(=O)[C@H](C)COC(=O)CC=C[C@@H](C)[C@H](OC)COC(=O)CC=C[C@@H]1C
2. CCOc1ccc(N2C(=O)/C(=C/C=C/c3ccccc3OC)S(=O)(=O)C2c2cccc([N+](=O)[O-])c2)cc1 (configuration not stated)
3. CCOC(=O)[C@H](CC(C)C)NC(=O)CCC1CC(OC(=O)NCc2cccc3ccccc23)CC2(CCCC(COC(=O)NCCN3CCOCC3)O2)O1 (some centres not stated)

## Output
-0.818
-3.13
0.557
